Molecular target: human M5 receptors (hM5) (Homo sapiens)
Construct: expressed in transfected cells
Sequence (P08912 whole entry): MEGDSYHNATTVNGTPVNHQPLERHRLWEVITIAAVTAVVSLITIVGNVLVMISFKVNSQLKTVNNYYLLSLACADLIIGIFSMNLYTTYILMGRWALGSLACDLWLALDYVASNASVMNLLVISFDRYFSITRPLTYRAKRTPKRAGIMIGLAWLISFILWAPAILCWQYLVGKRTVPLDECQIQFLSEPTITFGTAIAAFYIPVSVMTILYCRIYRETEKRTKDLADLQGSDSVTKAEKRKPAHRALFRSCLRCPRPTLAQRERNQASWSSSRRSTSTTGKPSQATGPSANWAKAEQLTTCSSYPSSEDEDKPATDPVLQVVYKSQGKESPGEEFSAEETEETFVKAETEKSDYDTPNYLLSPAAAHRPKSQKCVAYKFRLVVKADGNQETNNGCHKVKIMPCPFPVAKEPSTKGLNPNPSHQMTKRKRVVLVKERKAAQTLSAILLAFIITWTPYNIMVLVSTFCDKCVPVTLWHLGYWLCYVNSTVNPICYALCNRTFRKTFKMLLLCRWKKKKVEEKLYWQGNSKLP
Assay: Cell-based functional calcium mobilization assay of mAChR M5 activity (inhibition of EC80 acetylcholine response) in CHO cells
Conditions: CHO cells stably expressing hM5; minimum of EC80 acetylcholine response, normalized to maximum acetylcholine response
The molecules listed here are annotated with their EC80 MIN.
reportedEndpoint: EC80 MIN (%)

{"molecule": "O=C(Nc1ccc2scnc2c1)C1CCN(S(=O)(=O)c2ccc(F)c(F)c2)CC1", "tgt": "human M5 receptors (hM5) (Homo sapiens)", "u": "%", "measured": 3}
{"molecule": "O=C(Nc1ccc2scnc2c1)C1CCN(S(=O)(=O)c2ccc(Cl)nc2)CC1", "tgt": "human M5 receptors (hM5) (Homo sapiens)", "u": "%", "measured": 4}
{"molecule": "O=C(Nc1ccc2scnc2c1)C1CCN(S(=O)(=O)c2cccc3nsnc23)CC1", "tgt": "human M5 receptors (hM5) (Homo sapiens)", "u": "%", "measured": 3}
{"molecule": "O=C(Nc1ccc2scnc2c1)C1CCN(S(=O)(=O)c2ccc3c(c2)CCCO3)CC1", "tgt": "human M5 receptors (hM5) (Homo sapiens)", "u": "%", "measured": 4}
{"molecule": "O=C(Nc1ccc2scnc2c1)C12CC1CN(S(=O)(=O)c1cccnc1)C2 (racemic)", "tgt": "human M5 receptors (hM5) (Homo sapiens)", "u": "%", "measured": 53}
{"molecule": "O=C(Nc1ccc2scnc2c1)C1CCN(S(=O)(=O)c2ccccc2OC(F)(F)F)CC1", "tgt": "human M5 receptors (hM5) (Homo sapiens)", "u": "%", "measured": 4}
{"molecule": "Cc1nn(C)cc1S(=O)(=O)N1CC[C@H](C(=O)Nc2ccc3scnc3c2)C[C@H]1C (racemic)", "tgt": "human M5 receptors (hM5) (Homo sapiens)", "u": "%", "measured": 3}
{"molecule": "CC1(C)CN(S(=O)(=O)c2ccc3c(c2)CCO3)CCC1C(=O)Nc1ccc2scnc2c1 (stereo not shown)", "tgt": "human M5 receptors (hM5) (Homo sapiens)", "u": "%", "measured": 7}
{"molecule": "CC1(C)COc2ccc(S(=O)(=O)N3CC[C@@H](C(=O)Nc4ccc5scnc5c4)C3)cc21", "tgt": "human M5 receptors (hM5) (Homo sapiens)", "u": "%", "measured": 8}
{"molecule": "Cn1nnc2cc(S(=O)(=O)N3CCC(C(=O)Nc4ccc5scnc5c4)CC3)ccc21", "tgt": "human M5 receptors (hM5) (Homo sapiens)", "u": "%", "measured": 9}
{"molecule": "Cc1cc2c(cc1S(=O)(=O)N1CCC(C(=O)Nc3ccc4scnc4c3)CC1)OCO2", "tgt": "human M5 receptors (hM5) (Homo sapiens)", "u": "%", "measured": 8}
{"molecule": "CC1(C)COc2ccc(S(=O)(=O)N3CCC(C(=O)Nc4ccc5scnc5c4)CC3)cc21", "tgt": "human M5 receptors (hM5) (Homo sapiens)", "u": "%", "measured": 55}
{"molecule": "C[C@@H]1C[C@H](C(=O)Nc2ccc3scnc3c2)CCN1S(=O)(=O)c1ccc2c(c1)CCO2 (racemic)", "tgt": "human M5 receptors (hM5) (Homo sapiens)", "u": "%", "measured": 2}
{"molecule": "O=C(Nc1ccc2scnc2c1)C1CCN(S(=O)(=O)c2ccc3c(c2)OC(F)(F)O3)CC1", "tgt": "human M5 receptors (hM5) (Homo sapiens)", "u": "%", "measured": 60}
{"molecule": "N#Cc1cc(S(=O)(=O)N2CCC(C(=O)Nc3ccc4scnc4c3)CC2)ccc1Cl", "tgt": "human M5 receptors (hM5) (Homo sapiens)", "u": "%", "measured": 38}
{"molecule": "Cc1nn(C)cc1S(=O)(=O)N1CCC(F)(C(=O)Nc2ccc3scnc3c2)CC1", "tgt": "human M5 receptors (hM5) (Homo sapiens)", "u": "%", "measured": 9}
